- Test system: K562
- Method notes: NCI tumour cell line growth inhibition, 48 h
Active and inactive are the calls of the source. No stated cut-off is given here; in the data, active = GI50 up to about 1.1 µM and inactive = higher.
Please respond with reported GI50 for every item in the list.

{"columns": ["Molecule", "GI50"],
 "data": [
  ["C[C@H]1C[C@H]2[C@@H]3C(C)(C)O[C@]4(O)C(=O)[C@]5(O)[C@@H](C)CC[C@H]1[C@]25C(=O)[C@]34C", "25.5 µM (inactive)"],
  ["CCN(CC)CCCNc1ccc2nnn3c4ccc(O)cc4c(=O)c1c23", "7.23 µM (inactive)"],
  ["Cc1ccc(S(=O)(=O)NC(=O)NC(Cc2ccc(O)c(O)c2)C(=O)O)cc1 (stereo not given)", "37.1 µM (inactive)"],
  ["CC(C)CNC(=O)Cn1c(-c2ccccc2)cc2ccccc21", "> 100 µM (inactive)"],
  ["CC(=O)C(CN1CCOCC1)C(c1ccccc1)c1c(O)c2ccccc2oc1=O (stereo not given)", "> 100 µM (inactive)"]
]}

For each of the molecules below, note its GI50.
1. NC(Cc1ccc(O)cn1)C(=O)O (stereo not given)
2. CNC(=O)NCCN1N=C(C)/C(=C\c2ccccc2)CC1=O

1. > 100 µM (inactive)
2. > 100 µM (inactive)

For each of the molecules below, note its GI50.
1. Cc1cccc(/C=C2\CCCCCC2=O)c1
2. CN/N=C(\C(=O)Nc1ccc(C)c(C)c1)C(C(=O)OC)c1nc2ccc([N+](=O)[O-])cc2nc1O (stereo not given)
3. CN(C)CCNC(=O)c1cccc2nc3c4ccccc4c4ccccc4c3nc12

1. > 100 µM (inactive)
2. > 100 µM (inactive)
3. 1.52 µM (inactive)

* * *

- Tested on: OVCAR-3
- Method notes: NCI tumour cell line growth inhibition, 48 h
The source made the active and inactive calls. Rule as the data show it: active = GI50 up to about 1.1 µM and inactive = higher.
The reply should name one outcome from Y for active, N for inactive

{"columns": ["Molecule", "Assigned label"],
 "data": [
  ["CC1(C)[C@@H]2C[C@H]1C(Cc1ccc(C[C@H]3c4cc(-c5ccccn5)ncc4[C@H]4C[C@@H]3C4(C)C)cc1)c1cc(-c3ccccn3)ncc12 (stereo partly specified)", "Y"]
]}

Per the assay record, what outcome was assigned to Cc1cc(=O)c2cc(/N=C/c3ccc([N+](=O)[O-])o3)ccc2o1 ? N

Per the assay record, what outcome was assigned to CCC/C=C1\CCC(CN(C)C)C1=O (stereo unspecified) ? N

Per the assay record, what outcome was assigned to Cc1ccc(-c2cc(N)n(-c3nc4c(c(=O)n(C)c(=O)n4C)n3C)n2)cc1 ? N

Per the assay record, what outcome was assigned to CNc1ccc(-c2nc3cc(C)ccc3o2)cc1 ? N

Per the assay record, what outcome was assigned to O=C(c1cccnc1)N1N=C(c2ccccc2)CC1(O)c1cc(F)c(Cl)cc1Cl (stereo unspecified) ? N

* * *

Please respond with reported GI50 for every item in the list.
- Tested on: OVCAR-4
- Method notes: NCI tumour cell line growth inhibition, 48 h
Calls of active or inactive are those of the source. Rule as the data show it: active = GI50 up to about 1.1 µM and inactive = higher.

Look over these answered cases.
{"columns": ["Molecule", "GI50"],
 "data": [
  ["COc1ccc(/C=N/NC(=O)C2=C(N)N(c3ccccc3)C(=C(C#N)C#N)S2)cc1", "> 100 µM (inactive)"],
  ["Cc1nc(C(N)=S)sc1C(=O)CC(=O)C(=O)Nc1c(C(C)C)cccc1C(C)C", "> 100 µM (inactive)"]
]}

For each of the molecules below, note its GI50.
1. C=[N+](CNC(=O)CNC(=O)C(Cc1ccc([N+](=O)[O-])cc1)NC(=O)OC(C)(C)C)C(=O)CNC(=O)C(Cc1ccc([N+](=O)[O-])cc1)NC(=O)OC(C)(C)C (centres undefined)
2. O=Cc1ccccc1OCCOc1cc(OCCOc2ccccc2C=O)c(OCCOc2ccccc2C=O)cc1OCCOc1ccccc1C=O

["> 100 µM (inactive)", "39.9 µM (inactive)"]

// provenance: ChEMBL document CHEMBL1201862
